I'd appreciate it if you could supply TGI values for the items below.
- Test system: SK-MEL-5 melanoma
- Assay Name: NCI tumour cell line growth inhibition, 48 h
// note: answer is a bare numeric in µM

For the compound shown here, "Cc1nc(-c2ccccc2)cn2c1nc1ccccc12" , give the reported TGI.
28.6

For the compound shown here, "CN(C)CCNc1ccc2ncn3c4ccc(O)cc4c(=O)c1c23" , give the reported TGI.
8.52

For the compound shown here, "COC(NC(=O)Nc1ccc(C)cc1)(C(F)(F)F)C(F)(F)F" , give the reported TGI.
30.6

----------
- Test system: SF-268 CNS
- Assay Name: NCI tumour cell line growth inhibition, 48 h
I'd appreciate it if you could supply TGI values for the items below.

For the compound shown here, "NCC(=O)Nc1ccccc1" , give the reported TGI.
> 100 µM

For the compound shown here, "CSC(=NC(=O)c1ccccc1Cl)SCCSC(=NC(=O)c1ccccc1Cl)SC" , give the reported TGI.
> 100 µM

For the compound shown here, CCOC(=O)c1c(N)sc2c1CC(C)CC2 (stereo unspecified) , give the reported TGI.
> 100 µM

For the compound shown here, "CN(C)CCNc1ccc2ncn3c4ccc(O)cc4c(=O)c1c23" , give the reported TGI.
10.7 µM

For the compound shown here, "Cc1c(NC(=S)Nc2ccc([N+](=O)[O-])cc2)c(=O)n(-c2ccccc2)n1C" , give the reported TGI.
> 100 µM

For the compound shown here, "Cc1c(Cn2c(C)nc3c(C(=O)O)cc(N4CCOCC4)cc32)cccc1C(F)(F)F" , give the reported TGI.
> 100 µM

For the compound shown here, "COc1ccc(CC(=O)NCCc2ccc(OC)c(OC)c2OC)cc1" , give the reported TGI.
> 100 µM

For the compound shown here, "Cc1cc(OCc2nnc3n2S(=O)(=O)c2ccccc2N3C)ccc1Cl" , give the reported TGI.
68 µM

For the compound shown here, "COc1cc2nc(Nc3cccc(Cl)c3)nc(N)c2cc1OC" , give the reported TGI.
19.9 µM

For the compound shown here, "NC(=S)N/N=C/c1ccc(OC(=O)COc2cc(Cl)c(Cl)cc2Cl)cn1" , give the reported TGI.
43.6 µM

For the compound shown here, "CCOC(=O)c1ccc(-n2cnc(-c3ccc([N+](=O)[O-])cc3)c2)cc1" , give the reported TGI.
> 100 µM

----------
- Test system: CAKI-1 renal
- Assay Name: NCI tumour cell line growth inhibition, 48 h
Property Name: GI50

For the compound shown here, "COC[C@H](NC(=O)c1cnc(C)s1)C(=O)N[C@@H](COC)C(=O)N[C@@H](Cc1ccccc1)C(=O)[C@@]1(C)CO1" , give the reported GI50.
38.5 µM

For the compound shown here, "COc1cc(CCC[P+](c2ccccc2)(c2ccccc2)c2ccccc2)c(OC)c2c1OCO2" , give the reported GI50.
2.42 µM

For the compound shown here, NCCCCC(NC(=O)C(N)CCCN=C(N)N)C(=O)NC(CCCCN)C(=O)NC(CCCN=C(N)N)C(=O)NC(CCCN=C(N)N)C(=O)NC(CCC(N)=O)C(=O)NC(CCCN=C(N)N)C(=O)NC(CCCN=C(N)N)C(=O)NC(CCCN=C(N)N)C(=O)NCC(=O)NCC(=O)O (centres undefined) , give the reported GI50.
> 50 µM

For the compound shown here, "CCC[CH2][Sn](=[O])[CH2]CCC" , give the reported GI50.
> 35.1 µM

----------
I'd appreciate it if you could supply GI50 values for the items below.

What reported GI50 corresponds to Cc1ccc2c(C(C[N+](=O)[O-])c3ccccc3)c(-c3ccccc3)[nH]c2c1 (stereo not drawn) on MDA-MB-435?
4100 nM

What reported GI50 corresponds to CCOC(=O)c1[nH]c2cc(Cl)ccc2c1[C@@H](C(=O)NC(C)(C)C)N(CC)C(=O)CCCCC#Cc1cccc2c1CN(C1CCC(=O)NC1=O)C2=O (stereo partly drawn) on MDA-MB-435?
2340 nM

What reported GI50 corresponds to "CCN1CCN(CCNc2nccc(-c3c(-c4ccc(F)c(O)c4)nc4occn34)n2)S1(=O)=O" on MDA-MB-435?
3030 nM

What reported GI50 corresponds to "Cc1ccc(CNc2ccc3nc(CCC4CCCCC4)[nH]c3c2)cc1" on MDA-MB-435?
2090 nM

What reported GI50 corresponds to "Cc1cc2c(F)c(Oc3ncnc(Nc4ccc(N5C[C@@H](C)N[C@@H](C)C5)cc4)c3C#N)cc(F)c2[nH]1" on MDA-MB-435?
2030 nM

What reported GI50 corresponds to "COc1cc(-c2nn(-c3cccc(NC(=O)Nc4ccc(Cl)c(C(F)(F)F)c4)c3)cc2-c2ccncc2)ccc1Cl" on MDA-MB-435?
683 nM

What reported GI50 corresponds to FC1(F)ON2CCc3ccccc3C2[C@H]1c1ccccc1 (stereo partly drawn) on MDA-MB-435?
> 100000 nM

What reported GI50 corresponds to "C(=N\Nc1ncc(-c2cc3cc4c(cc3o2)OCO4)s1)/c1ccco1" on MDA-MB-435?
2860 nM

What reported GI50 corresponds to "COc1ccc2c(c1)c(-c1nc(-c3cn(C)c4ccncc34)cs1)cn2C" on MDA-MB-435?
1590 nM

What reported GI50 corresponds to "COc1ccc(-c2ncnc3c2ncn3CC#CCCl)cc1" on MDA-MB-435?
2710 nM

What reported GI50 corresponds to "O=C(O)Cc1cccc2c(=O)cc(-c3ccccc3)oc12" on MDA-MB-435?
518000 nM

What reported GI50 corresponds to CN1C(=O)CCC(N2C(=O)c3cccc(NCCOCCOCCNC(=O)c4cc5c(o4)C(=O)c4ccccc4C5=O)c3C2=O)C1=O (stereo not drawn) on MDA-MB-435?
1050 nM

What reported GI50 corresponds to "CC(=O)O.CN1[CH-]N(Cc2ccc(C#N)cc2)c2ccccc21.[Ag+]" on MDA-MB-435?
16900 nM

----------
I'd appreciate it if you could supply GI50 values for the items below.
- Test system: UACC-257 melanoma
- Assay Name: NCI tumour cell line growth inhibition, 48 h

For the compound shown here, CC1=C(C#N)C23C(=O)N(c4ccccc4)C(=O)C2=C(O)C=CC3(O)N1Cc1ccc(Cl)cc1Cl (stereo not drawn) , give the reported GI50.
13.2 µM

For the compound shown here, "CCC[CH2][Sn](=[O])[CH2]CCC" , give the reported GI50.
> 50 µM

For the compound shown here, "COc1cc2nc(Nc3cccc(Cl)c3)nc(N)c2cc1OC" , give the reported GI50.
2.11 µM

For the compound shown here, "Fc1cccc(COc2ccc(Nc3ncnc4onc(-c5ccccc5)c34)cc2)c1" , give the reported GI50.
37.5 µM

For the compound shown here, "CN(C)c1ccc(/C=N/NC(N)=S)nc1" , give the reported GI50.
24.4 µM

For the compound shown here, "COc1cc(CCC[P+](c2ccccc2)(c2ccccc2)c2ccccc2)c(OC)c2c1OCO2" , give the reported GI50.
0.378 µM

For the compound shown here, "CC(=O)O.CN1[CH-]N(Cc2ccc(C#N)cc2)c2ccccc21.[Ag+]" , give the reported GI50.
14.8 µM

For the compound shown here, "Cc1c(Cn2c(C)nc3c(C(=O)O)cc(N4CCOCC4)cc32)cccc1C(F)(F)F" , give the reported GI50.
61.1 µM

For the compound shown here, "Cc1cc2c(F)c(Oc3ncnc(Nc4ccc(N5C[C@@H](C)N[C@@H](C)C5)cc4)c3C#N)cc(F)c2[nH]1" , give the reported GI50.
2.06 µM

For the compound shown here, "C=C(C)[C@@H]1CC[C@]2(CO)CC[C@]3(C)[C@H](CC[C@@H]4[C@@]5(C)CCCNC(C)(C)[C@@H]5CC[C@]43C)[C@@H]12" , give the reported GI50.
1.95 µM

For the compound shown here, "Oc1ccccc1-c1nn(CNc2ccc(Cl)cc2)c(=S)o1" , give the reported GI50.
20.6 µM

For the compound shown here, CN1C(=O)CCC(N2C(=O)c3cccc(NCCOCCOCCNC(=O)c4cc5c(o4)C(=O)c4ccccc4C5=O)c3C2=O)C1=O (stereo not drawn) , give the reported GI50.
1.59 µM

For the compound shown here, "COc1cc(-n2ccnc2-c2ccc3ccccc3c2)cc(OC)c1OC" , give the reported GI50.
20 µM

----------
- System: NCI-H460 lung
- Assay Name: NCI tumour cell line growth inhibition, 48 h
Property Name: TGI (µM)
// note: answer is a bare numeric in µM

For the compound shown here, "COc1ccc(Nc2nc(NCCNc3ccnc4cc(Cl)ccc34)nc(N3CCOCC3)n2)cc1" , give the reported TGI.
19.3

For the compound shown here, "COc1ccc(/C=C/c2cc(OC)c(OC(C)=O)c(OC)c2)cc1" , give the reported TGI.
60.4

For the compound shown here, "O=[N+]([O-])c1ccc(-c2csc(N=Nc3c(O)[nH]c4ccccc34)n2)cc1" , give the reported TGI.
22.9

For the compound shown here, "CN(C)CCNc1ccc2ncn3c4ccc(O)cc4c(=O)c1c23" , give the reported TGI.
6.5
